Listing: composite z-score of selected compounds
- test: probe aCHRDL2 binding to arrayed compounds – biochemical, biotinylated probe, 635/667 nm fluorescence, primary screen (AID 1100)
- measurement_context: small-molecule microarray, higher = more signal
Form field (numeric): enter value without unit.

Answered examples (4):
# compound, measure_name, readout_number
data = [
    ("C[N+](C)(C)CCCCNC(=O)[C@H]1C[C@H]2C(=O)N3CCC[C@H]3C(=O)N2[C@H]1c1ccc(O)cc1", "composite z-score", -0.152),
    ("C=CCOC(=O)[C@@H]1[C@H]2C(=O)O[C@H](c3ccccc3)[C@H](c3ccccc3)N2[C@H](c2ccc(OCCOC(=O)[C@H]3C[C@H]4C(=O)N[C@@H](CC(C)C)C(=O)N4[C@H]3c3cccc(OCCO)c3)cc2)[C@@]12C(=O)Nc1ccc(I)cc12", "composite z-score", -0.135),
    ("COc1ccc(C(O)C2C=CC3C(=O)N(c4ccccc4)C(=O)C3N2Nc2ccccc2)c2ccccc12 (configuration not stated)", "composite z-score", 0.947),
    ("CC(C)(C)OC(=O)CC[C@]1(C(=O)NCC(O)CO)N=C(c2ccc(OCCCO)cc2)O[C@H]1c1ccccc1CN=[N+]=[N-] (some centres not stated)", "composite z-score", 1.33),
]

Req: Which composite z-score is listed for CCCNC(=O)[C@@]1(C)c2ccccc2C(=O)N(C(C)C)[C@H]1c1ccc(CO)cc1 ?
Resp: 1.09

Req: O=C1O[C@H](c2ccccc2)[C@H](c2ccccc2)N2[C@H]1[C@@H](C(=O)N1CCCCCCC1)[C@]1(C(=O)Nc3ccc(C#CC4=CCCCC4)cc31)[C@H]2c1ccc(O)cc1 , same question.
Resp: 1.72

Req: C[N+](C)(C)CCCC[C@@H]1NC(=O)[C@H]2C[C@@H](C(=O)O)[C@@H](c3cccc(OCCO)c3)N2C1=O , same question.
Resp: 1.38

----------
- assay_system: Epidermal growth factor receptor (Homo sapiens) (UniProt P00533)
- Sequence (P00533 whole entry, looked up): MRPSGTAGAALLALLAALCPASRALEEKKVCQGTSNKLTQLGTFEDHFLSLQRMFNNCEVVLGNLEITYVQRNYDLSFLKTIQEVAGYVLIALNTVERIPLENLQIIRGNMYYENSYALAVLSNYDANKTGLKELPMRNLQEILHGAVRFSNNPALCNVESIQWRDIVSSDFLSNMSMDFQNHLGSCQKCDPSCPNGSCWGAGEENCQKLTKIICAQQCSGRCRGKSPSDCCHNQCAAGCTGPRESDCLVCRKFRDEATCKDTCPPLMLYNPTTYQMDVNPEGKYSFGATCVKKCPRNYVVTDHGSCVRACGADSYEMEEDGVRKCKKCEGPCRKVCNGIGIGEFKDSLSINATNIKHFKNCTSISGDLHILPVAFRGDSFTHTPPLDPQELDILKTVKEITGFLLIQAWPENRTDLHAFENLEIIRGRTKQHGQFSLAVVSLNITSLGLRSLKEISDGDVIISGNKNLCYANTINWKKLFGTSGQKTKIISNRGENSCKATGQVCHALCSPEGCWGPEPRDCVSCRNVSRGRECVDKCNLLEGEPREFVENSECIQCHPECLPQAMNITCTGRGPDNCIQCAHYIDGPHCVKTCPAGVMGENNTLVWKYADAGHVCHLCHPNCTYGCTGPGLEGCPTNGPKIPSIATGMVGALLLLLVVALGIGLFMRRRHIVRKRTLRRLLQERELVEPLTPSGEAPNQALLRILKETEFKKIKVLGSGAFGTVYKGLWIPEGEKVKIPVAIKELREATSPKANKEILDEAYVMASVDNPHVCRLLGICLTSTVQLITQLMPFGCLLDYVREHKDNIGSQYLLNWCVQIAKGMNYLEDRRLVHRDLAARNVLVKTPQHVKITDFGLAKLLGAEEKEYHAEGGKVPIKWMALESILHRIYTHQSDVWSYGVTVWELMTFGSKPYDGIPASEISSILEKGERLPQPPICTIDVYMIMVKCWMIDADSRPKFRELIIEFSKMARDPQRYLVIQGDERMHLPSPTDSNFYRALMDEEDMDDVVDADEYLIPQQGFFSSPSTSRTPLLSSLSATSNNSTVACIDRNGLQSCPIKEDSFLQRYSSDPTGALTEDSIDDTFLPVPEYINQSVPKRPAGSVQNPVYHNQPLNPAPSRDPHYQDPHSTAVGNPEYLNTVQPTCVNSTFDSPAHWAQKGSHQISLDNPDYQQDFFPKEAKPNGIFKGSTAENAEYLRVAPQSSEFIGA
- test: compounds binding epidermal growth factor receptor – biochemical, small-molecule microarray, 635 nm fluorescence, primary screen (AID 1104);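 further: score merges 667 nm emission intensity with spot signal to noise over triplicate slides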
- measurement_context: EGFR binding, higher = more signal
The threshold is inclusive: composite z-score of exactly 0.04 counts as 1.0; values below receive 0.0.

Completed entries (count: 5):
# molecule, class
measured = [
    ("CN1C(=O)C2C(C1=O)C1C=C(c3ccc(CO)cc3)C2C(C2CC2)N1Cc1cc2c(cc1Br)OCO2 (configuration not stated)", 1.0),
    ("CC1CC/C=C\\[C@H]2OC34C=CCN(c5ccc6ccccc6c5)C(=O)[C@H]3N(CCCCCO)C(=O)[C@@H]4C2C(=O)O1 (some centres not stated)", 1.0),
    ("NC(=O)NCC#Cc1ccc2c(c1)[C@]1(C(=O)N2)[C@H](c2ccccc2OCCO)N2[C@H](c3ccccc3)[C@H](c3ccccc3)OC(=O)[C@H]2[C@@H]1C(=O)N1CCCCCCC1", 1.0),
    ("COCCCNC(=O)[C@@]1(Sc2ccc(C)cc2)CC(=O)N(Cc2ccccc2)[C@@H]1c1ccc(CO)cc1", 0.0),
    ("C=CCN1C(=O)[C@]2(COC(c3ccc(OCCCO)cc3)=N2)Cc2ccccc21", 1.0),
]

Req: Is it the case that COCCOC(=O)N1C(=O)[C@@]2(c3cc(C#CCC(C(=O)OC)C(=O)OC)ccc31)[C@H](c1ccccc1OCCO)N1[C@H](c3ccccc3)[C@H](c3ccccc3)OC(=O)[C@H]1[C@@H]2C(=O)Nc1nc2ccccc2s1 has composite z-score reaching or exceeding 0.04?
Resp: 1.0

Req: CCCCN1CC=CC23O[C@@H]4/C=C\CCCOC(=O)C4[C@H]2C(=O)N(C(C)CO)[C@@H]3C1=O (some centres not stated) , same question.
Resp: 0.0
